assay: Antioxidant activity assessed as trolox equivalent of AAPH radical scavenging activity at 10 uM measured every min for 90 mins by ORAC-FL assay; format: functional
REPORTED_ENDPOINT: Activity (equiv)
Reply with just the number (in equiv).

Answered cases to consult:
GIVEN_SMILES | REPORTED_ENDPOINT | UNIT_NAME | REPORTED_RESULT
Cn1c(=O)oc2cc(NC(=O)CCN3CCC(c4ccccc4)CC3)ccc21 | Activity | equiv | 4.09
O=C(CCN1CCN(Cc2ccccc2)CC1)Nc1ccc2nc(-c3ccccc3)sc2c1 | Activity | equiv | 2.64
CN(CCC(=O)Nc1ccc2c(c1)oc(=O)n2C)Cc1ccccc1 | Activity | equiv | 4.3
Cn1c(=O)sc2cc(NC(=O)CCN3CCN(c4ccccc4)CC3)ccc21 | Activity | equiv | 4.24

Query: // Activity lookup, key: Cn1c(=O)sc2cc(C(=O)CCN3CCC(c4ccccc4)CC3)ccc21
Result: 3.1

Query: Item Cn1c(=O)sc2cc(NC(=O)CCN3CCN(c4ccc(Cl)cc4)CC3)ccc21 has what recorded Activity?
Result: 4.43

Query: Consider the molecule COc1ccc(N2CCN(CCC(=O)Nc3ccc4c(c3)oc(=O)n4C)CC2)cc1 and give its measured Activity.
Result: 4.28

Query: So what's the measured Activity for this one? Cn1c(=O)sc2cc(NC(=O)CCCN3CCC(c4ccccc4)CC3)ccc21
Result: 2.93

Query: Fill blank: measured Activity of the molecule Cn1c(=O)sc2cc(NC(=O)CCN3CCC(Cc4ccccc4)CC3)ccc21 is ____.
Result: 4.01

Query: Requested field: Activity. Item: Cc1ccc(N2CCN(CCC(=O)Nc3ccc4c(c3)sc(=O)n4C)CC2)cc1
Result: 4.31

Query: What value of measured Activity is listed for Cn1c(=O)sc2cc(C(=O)CCN3CCN(Cc4ccccc4)CC3)ccc21 ?
Result: 3.7

Query: Give its Activity value. Item: Cn1c(=O)sc2cc(NC(=O)CCN3CCN(Cc4ccc(C(F)(F)F)cc4)CC3)ccc21
Result: 4.45

Query: Field request: Activity | item: Cn1c(=O)sc2cc(NC(=O)CCCCN3CCN(Cc4ccccc4)CC3)ccc21
Result: 2.67

Query: What does the data say about its Activity? Entry: Cn1c(=O)sc2cc(NC(=O)CCN3CCN(Cc4ccccc4)CC3)ccc21
Result: 4.08

Query: For the molecule Cn1c(=O)oc2cc(NC(=O)CCN3CCN(Cc4ccccc4)CC3)ccc21 , what Activity is on record?
Result: 3.78

Query: Dear colleague, I am looking for the recorded Activity of the following molecule: Cn1c(=O)oc2cc(NC(=O)CCN3CCN(c4ccc(C(F)(F)F)cc4)CC3)ccc21
Result: 3.9

Query: Reported Activity for COc1ccc(CN2CCN(CCC(=O)Nc3ccc4c(c3)sc(=O)n4C)CC2)cc1 : what is it?
Result: 4.28

Query: Dear colleague, I am looking for the recorded Activity of the following molecule: Cn1c(=O)oc2cc(NC(=O)CCN3CCN(Cc4ccc(Cl)cc4)CC3)ccc21
Result: 4.19

Query: Given Cn1c(=O)sc2cc(NC(=O)CCN3CCC(c4ccccc4)CC3)ccc21 , state its recorded Activity.
Result: 4.31

Query: Given Cn1c(=O)oc2cc(NC(=O)CCCCN3CCN(Cc4ccccc4)CC3)ccc21 , state its recorded Activity.
Result: 2.63

Query: // query Activity value for entry Cn1c(=O)oc2cc(NC(=O)CCCN3CCN(Cc4ccccc4)CC3)ccc21
Result: 3.97
